Assay: Method D: solubilization of LE by cyclodextrins, HPLC before and after centrifugation
Format: physicochemical
Details: water with 1.0% hecd; 1.0% HECD; water, one week, room temperature; read-out: LE Solubilized
PARAMETER_MEASURED: solubility at 168 h

Using the record for CCOC(=O)O[C@]1(C(=O)OCCl)CC[C@H]2[C@@H]3CCC4=CC(=O)C=C[C@]4(C)[C@H]3[C@@H](O)C[C@@]21C [LE, loteprednol etabonate] , report its solubility at 168 h.
10 µg/mL

----------
Test: Method D: solubilization of LE by cyclodextrins, HPLC before and after centrifugation
Type: physicochemical
Settings: water with 0.5% hpcd; 0.5% HPCD; water, one week, room temperature; read-out: LE Solubilized
PARAMETER_MEASURED: solubility at 168 h

Param item = CCOC(=O)O[C@]1(C(=O)OCCl)CC[C@H]2[C@@H]3CCC4=CC(=O)C=C[C@]4(C)[C@H]3[C@@H](O)C[C@@]21C [LE, loteprednol etabonate] ; retrieve measured solubility at 168 h.
7 µg/mL
